Biological target: CysLT1 (LTD4) (h) (Homo sapiens, UniProt Q9Y271)
Construct: expressed in transfected cells; host or cells: CHO cells
Sequence (Q9Y271 whole entry): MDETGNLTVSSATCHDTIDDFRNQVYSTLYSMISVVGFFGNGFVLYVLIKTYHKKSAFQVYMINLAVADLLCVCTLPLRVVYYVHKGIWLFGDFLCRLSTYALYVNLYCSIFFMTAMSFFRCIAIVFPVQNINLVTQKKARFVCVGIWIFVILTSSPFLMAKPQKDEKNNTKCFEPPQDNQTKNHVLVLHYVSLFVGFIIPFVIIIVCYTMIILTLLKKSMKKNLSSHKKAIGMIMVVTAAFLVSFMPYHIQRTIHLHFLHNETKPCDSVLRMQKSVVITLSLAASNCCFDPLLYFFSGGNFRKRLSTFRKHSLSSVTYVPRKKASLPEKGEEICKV
Experiment: Binding CysLT1 (LTD4) (ag)
Settings: read-out: % Inhibition of Control Specific Binding @ 10 μM
Experimental: Radioligand binding assay methods utilized to measure the activity of compounds of the invention will be familiar to those skilled in the art. […] Analysis and Expression of Results: Compounds of the invention were tested in the biochemical assays and percent inhibition of specific binding was determined. The specific ligand binding to the receptors is defined as the difference between the total binding and the nonspecific binding determined in the presence of an excess of unlabelled ligand. […]
Each entry below lists one item and its recorded inhibition at 10 µM value.

STRUCTURE_SMILES: CC1(C)C(=O)N(c2ccc(C#N)c(C(F)(F)F)c2)C(=S)N1c1ccc(C(=O)O)c(F)c1
inhibition at 10 µM: 3%
--
STRUCTURE_SMILES: CC1(C)C(=O)N(c2ccc(C#N)c(C(F)(F)F)c2)C(=O)N1c1ccc(C(N)=O)c(F)c1
inhibition at 10 µM: 11%
--
STRUCTURE_SMILES: CNC(=O)c1ccc(N2C(=O)N(c3ccc(C#N)c(C(F)(F)F)c3)C(=O)C2(C)C)cc1F
inhibition at 10 µM: 11%
--
STRUCTURE_SMILES: CC1(C)C(=O)N(c2ccc(C#N)c(C(F)(F)F)c2)C(=S)N1c1ccc(C(N)=O)c(F)c1
inhibition at 10 µM: 18%

====

# % Inhibition of Control Specific Binding @ 10 μM per entry
System: PCP
Assay: Binding PCP (aa)
Design: species or system rat
Procedure: Radioligand binding assay methods utilized to measure the activity of compounds of the invention will be familiar to those skilled in the art. […] Analysis and Expression of Results: Compounds of the invention were tested in the biochemical assays and percent inhibition of specific binding was determined. The specific ligand binding to the receptors is defined as the difference between the total binding and the nonspecific binding determined in the presence of an excess of unlabelled ligand. […]
MEASUREMENT_TYPE: % Inhibition of Control Specific Binding @ 10 μM (%)

COMPOUND: CC1(C)C(=O)N(c2ccc(C#N)c(C(F)(F)F)c2)C(=S)N1c1ccc(C(=O)O)c(F)c1 [(MI)]
OUTPUT_UNIT: %
TEST_RESULT: 0
--
COMPOUND: CC1(C)C(=O)N(c2ccc(C#N)c(C(F)(F)F)c2)C(=O)N1c1ccc(C(N)=O)c(F)c1 [(MIII)]
OUTPUT_UNIT: %
TEST_RESULT: 2
--
COMPOUND: CC1(C)C(=O)N(c2ccc(C#N)c(C(F)(F)F)c2)C(=S)N1c1ccc(C(N)=O)c(F)c1 [(MII)]
OUTPUT_UNIT: %
TEST_RESULT: 5
--
COMPOUND: CNC(=O)c1ccc(N2C(=O)N(c3ccc(C#N)c(C(F)(F)F)c3)C(=O)C2(C)C)cc1F [(MIV)]
OUTPUT_UNIT: %
TEST_RESULT: 4

====

Below, each of the compounds is paired with its reported % Injected Radioactivity (%) value.
assay: [14C]RD162′ radio-HPLC metabolite profile in Pooled Rat Plasma; assay type: in vivo, Sprague Dawley rats; settings: [14C]RD162′ 100 mg/kg/day oral, day 7, 4 h

STRUCTURE_SMILES: CC1(C)C(=O)N(c2ccc(C#N)c(C(F)(F)F)c2)C(=O)N1c1ccc(C(=O)O)c(F)c1
% Injected Radioactivity (%): 5.76

STRUCTURE_SMILES: CNC(=O)c1ccc(N2C(=O)N(c3ccc(C#N)c(C(F)(F)F)c3)C(=O)C2(C)C)cc1F
% Injected Radioactivity (%): 8.45

STRUCTURE_SMILES: CC1(C)C(=O)N(c2ccc(C#N)c(C(F)(F)F)c2)C(=O)N1c1ccc(C(N)=O)c(F)c1
% Injected Radioactivity (%): 7.96

STRUCTURE_SMILES: CC1(C)C(=O)N(c2ccc(C#N)c(C(F)(F)F)c2)C(=S)N1c1ccc(C(N)=O)c(F)c1
% Injected Radioactivity (%): 5.38

STRUCTURE_SMILES: CC1(C)C(=O)N(c2ccc(C#N)c(C(F)(F)F)c2)C(=S)N1c1ccc(C(=O)O)c(F)c1
% Injected Radioactivity (%): 11.02
